Known melting point of a selection of compounds
Endpoint Name: melting point

Compound	Result
OC(CCl)CNc1ccc(Cl)c(Cl)c1 (stereo not drawn)	51 to 53 °C
CCOC(=O)COc1cccc2oc(-c3ccccc3)cc(=O)c12	89.5 to 90.5 °C
COC(=O)c1ccc(C=Cc2nc3ccccc3s2)cc1	168 to 169 °C
COc1ccc(Cn2c(=O)[nH]c3cc(Cl)ccc3c2=O)cc1	254 to 256 °C
O=C(/C=C/C=C(c1ccccc1C(F)(F)F)c1ccccc1C(F)(F)F)NCCCCc1cccnc1	110 to 112 °C
CC(C)c1nc(N)c(N)c(=O)[nH]1	198 to 200 °C
Nc1nc(N)c2ncn(COCCOCCO)c2n1	76 to 82 °C
COc1ccc2c(c1)CCC1=C2CCC2(C(C)C)C(=O)CC=C12 (stereo not drawn)	112 to 113 °C
CC1(C)COc2cc(O)c(C=O)cc21	100 to 102 °C
N#Cc1cccc2c1CCC2=NO	200 to 202 °C
C=C(Cc1ccc(C=Cc2ccc(CC(=C)C(=O)OCC)cc2)cc1)C(=O)O	123 to 125 °C
Cc1nc2c(c3c1[nH]c1cc(F)ccc13)C(=O)CC(C(C)C)C2 (stereo not drawn)	285 to 286 °C
CCCCCCCOC(=O)Oc1ccncc1	44 to 50 °C
